Hey, just so you know, these numbers are from PubChem BioAssay (NCI).

tested on: SNB-78 CNS; assay: NCI tumour cell line growth inhibition, 48 h
QUANTITY: TGI

# MOLECULE, RESULT
rows = [
    ("O=C(O)c1cn2c3c(cc(N4CCN(CCO)CC4)cc3c1=O)SCC2", "> 100 µM"),
    ("COC(=O)c1c(N)n[nH]c1N", "> 100 µM"),
    ("CN(C)CCNC(=O)c1cccc2c1nc(-c1ccccc1)c1ccccc12", "26.4 µM"),
    ("S=c1cc(S)sc2c1c(=S)sc1nc3ccccn3c(=S)c12", "> 100 µM"),
    ("Clc1ccc(C2SCc3nc4ccccc4n32)cc1Cl (stereo not drawn)", "29.1 µM"),
    ("C1CCN(c2nc(=[N+]3CCCCC3)ss2)CC1", "> 100 µM"),
    ("O=C(NP(=O)(N1CC1)N1CC1)c1cc(I)ccc1I", "> 100 µM"),
    ("COc1cc(OC)c(C2CC=Cc3c(OC)cc(OC)c(OC)c32)cc1OC (stereo not drawn)", "> 100 µM"),
    ("CNC(=O)N(C)COC", "> 100 µM"),
    ("CC(C)(C)c1cc2c3c(c1)C(C(F)(F)F)(C(F)(F)F)O[Te]3(C)OC2(C(F)(F)F)C(F)(F)F", "> 100 µM"),
    ("O=[N+]([O-])c1cccc(C2ON2C2CCCCC2)c1 (stereo not drawn)", "> 100 µM"),
    ("CC1(Cl)CCC2(CC(Br)=CC3OC32C)CC1Br (stereo not drawn)", "86.6 µM"),
    ("COC1OC(COCc2ccc(Cl)cc2)C(OCc2ccc(Cl)cc2)C1N=[N+]=[N-] (stereo not drawn)", "> 100 µM"),
]
